- Tested System: pm5 (human, sulfated tyrosines at Y15 and Y17)
- Sequence (peptide, as listed by the source): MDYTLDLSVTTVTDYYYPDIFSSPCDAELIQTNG
- Assay Explanation: ELISA on coated peptide [cont.]

[
  {
    "Binder": "3-79 (antibody, human IgG1, kappa, V domains shown, humanized, human IgG1 kappa) VH: EVQLLESGGGLVQPGGSLRLSCAASGFTFNAYAMNWVRQAPGKGLEWVARIRSKSNDYATYYGDSVKGRFTISRDNSKNTLYLQMNSLRAEDTAVYYCVRGREAYYRYDGGYYAMDVWGQGTTVTVSS VL: DIVMTQSPLSLPVTPGEPASISCRSSKSLLHSNGNTYLYWFLQKPGQSPQLLIYRVSNLASGVPDRFSGSGSGTDFTLKISRVEAEDVGVYYCMQHREYPFTFGQGTKLEIKR",
    "binding result": "binds"
  },
  {
    "Binder": "3-33 (antibody, V domains shown) VH: EVQLQQSGPELVKPGASVKISCKTSGYTFTEYTIHWVKQSHGESLEWVGGINPNNGNTRYDQKFKGKATLTIDKSSSPAYMELRSLTSEDSAVYYCARVARSSGSGPYAMDYWGQGTSVTVSS VL: DVVMTQTPLSLPVSLGDQASISCRCTQSLLHTNGDTYLHWYLQKPGQSPKLLIYKVSNRFSGVPDRFSGSGSGTDFTLKISRVEAEDLGVYFCSQSTHVPYTFGGGTKLEIK",
    "binding result": "binds"
  },
  {
    "Binder": "3-42 (antibody, V domains shown) VH: QVQLKESGPGLVAPSQSLSITCTVSGFSLTDYRVSWIRQPPGKGLEWLGVIWGGRSTYYNSALKSRLSISKDNSKSQVFLKMNSLQTDDTAMYYCAKQGDGYYALDYWGQGTSVTVSS VL: DVVMTQTPLSLPVSLGDQASISCRSSQSLVHSYGNTYLHWYLQKPGQSPKLLIYKVSNRFSGVPDRFHGSGSGTDFTLKISRVEAEDLGVYFCSQSTHVPPTFGGGTKLEIK",
    "binding result": "binds"
  }
]
